Origin of measurements: patent US5436229A

Tested target: Bovine trypsin (Bos taurus)
Construct: Bovine trypsin is purchased from Worthington Biochemicals; purchased Worthington Biochemicals, Freehold, N.J
Sequence (P00760 24-246): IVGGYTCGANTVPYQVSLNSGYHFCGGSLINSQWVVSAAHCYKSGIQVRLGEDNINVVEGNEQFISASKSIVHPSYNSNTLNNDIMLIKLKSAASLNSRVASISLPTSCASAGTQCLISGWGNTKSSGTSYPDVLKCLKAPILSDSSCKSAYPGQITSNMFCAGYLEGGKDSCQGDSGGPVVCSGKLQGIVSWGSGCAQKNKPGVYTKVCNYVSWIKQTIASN
Method summary: Serine protease inhibition (Kass), trypsin
Type: biochemical
Measured quantity: Kass Trypsin (L/mol × 10^6)
Record the value in L/mol × 10^6, omitting the unit from your answer.

Solved entries (count: 3):
Input: Using the record for `Cl.N=C(N)NCCC[C@@H](C=O)NC(=O)[C@@H]1CCCN1C(=O)[C@@H](Cc1ccccc1)NC(=O)C1CCCCC1` , report its Kass Trypsin.
Output: 5.9

Input: Using the record for `CCS(=O)(=O)N[C@@H](C(=O)N1CCC[C@H]1C(=O)N[C@H](C=O)CCCNC(=N)N)C1CCCCC1.Cl` , report its Kass Trypsin.
Output: 260

Input: Using the record for `Cl.Cn1c(C(=O)N[C@H](Cc2ccccc2)C(=O)N2CCC[C@H]2C(=O)N[C@H](C=O)CCCNC(=N)N)cc2ccccc21` , report its Kass Trypsin.
Output: 120

The record that follows has no Kass Trypsin shown yet.
Input: Using the record for `CCS(=O)(=O)N[C@@H](C(=O)N1CCC[C@H]1C(=O)N[C@H](C=O)CCCNC(=N)N)c1ccccc1.Cl` , report its Kass Trypsin.
Output: 160

* * *

Tested target: human thrombin (Homo sapiens, UniProt P00734)
Method summary: Thrombin amidase inhibition (Kass), chromogenic substrate
Assay type: biochemical
Binary call on Kass Human Thrombin: Satisfied from 40 L/mol × 10^6 upward, Not satisfied beneath that.

Input: Test whether the compound CS(=O)(=O)N[C@H](Cc1ccccc1)C(=O)N1CCC[C@H]1C(=O)N[C@H](C=O)CCCNC(=N)N.Cl [Example 51] records Kass Human Thrombin of 40 L/mol × 10^6 or higher.
Output: Satisfied

Input: Test whether the compound Cl.Cl.N=C(N)NCCC[C@@H](C=O)NC(=O)[C@@H]1CCCN1C(=O)C1(Cc2ccccc2)CCN1 (stereo partly shown) [Example 26] records Kass Human Thrombin of 40 L/mol × 10^6 or higher.
Output: Satisfied

***
Input: Test whether the compound CCOC(=O)N[C@](CC)(Cc1ccccc1)C(=O)N1CCC[C@H]1C(=O)N[C@H](C=O)CCCNC(=N)N.Cl [Example 35] records Kass Human Thrombin of 40 L/mol × 10^6 or higher.
Output: Satisfied

Input: Test whether the compound CCCC(Cc1ccccc1)(NC(=O)OCC)C(=O)N1CCC[C@H]1C(=O)N[C@H](C=O)CCCNC(=N)N.Cl (stereo partly shown) [Example 38] records Kass Human Thrombin of 40 L/mol × 10^6 or higher.
Output: Not satisfied

Input: Test whether the compound Cl.Cn1c(C(=O)NC(C)(Cc2ccccc2)C(=O)N2CCC[C@H]2C(=O)N[C@H](C=O)CCCNC(=N)N)cc2ccccc21 (stereo partly shown) [Example 34] records Kass Human Thrombin of 40 L/mol × 10^6 or higher.
Output: Not satisfied

Input: Test whether the compound CCS(=O)(=O)N[C@@H](C(=O)N1CCC[C@H]1C(=O)N[C@H](C=O)CCCNC(=N)N)C1CCCCC1.Cl [Example 66] records Kass Human Thrombin of 40 L/mol × 10^6 or higher.
Output: Satisfied

Input: Test whether the compound Cl.N=C(N)NCCC[C@@H](C=O)NC(=O)[C@@H]1CCCN1C(=O)[C@@H](Cc1ccccc1)NC(=O)C(F)(F)F [Example 69] records Kass Human Thrombin of 40 L/mol × 10^6 or higher.
Output: Not satisfied
